In this section, each of the compounds is paired with its reported MIC.
- Tested on: Escherichia coli
- assay_procedure: microbe, parasite or virus in culture
- Description: Antimicrobial activity against Escherichia coli expressing beta-lactamase TEM-10 by CLSI broth microdilution method
Lab book: enter the figure in µg/mL, no units written.

// worked examples, MIC included
1) CC(C)(O/N=C(\C(=O)N[C@@H]1C(=O)N(S(=O)(=O)O)[C@@H]1Cn1cc(NC(=O)C[N+](C)(C)C)nn1)c1csc(N)n1)C(=O)O; 8
2) CC(C)(O/N=C(\C(=O)N[C@@H]1C(=O)N(S(=O)(=O)O)[C@@H]1Cn1cncn1)c1csc(N)n1)C(=O)O (stereo in doubt); 1

Could you now consider this next compound?
Hey, Escherichia coli data for CC(C)(O/N=C(\C(=O)N[C@@H]1C(=O)N(S(=O)(=O)O)[C@@H]1CN1CCNC1=O)c1csc(N)n1)C(=O)O (stereo in doubt) : MIC came out at 4
